Reported pEC50 values are given for each entry in this list.
TARGET UNDER TEST: T1, cynomolgus monkey CD38 (cynomolgus monkey, UniProt Q5VAN0 44-301, limits assumed)
T1 construct: also called Cyno CD38; cynoCD38
ASSAY REMARKS: FACS
Kindly note that pEC50 refers to -log10 of the concentration in mol/L and answer with the value alone.

Input: Quick one: pEC50 for AntiCD38_hyb_5739 (antibody, V domains shown) VH: QVQLQQSGPELVRPGTSVKVSCKASGYAFTTYLVEWIKQRPGQGLEWIGVINPGSGSTNYNEKFKGKATLTVDRSSTTAYMHLSGLTSDDSAVYFCARYAYGYWGQGTTLTVSS VL: DIVMTQSQKFMSASVGDRVSITCKASQNVGTAVAWYQQQPGHSPKQLIYSASNRYTGVPDRFTGSGAGTDFTLTISNIQSEDLADYFCQQYSTYPFTFGSGTKLEIK ?
Output: 9.30

Input: I would be grateful if you could share the reported pEC50 for AntiCD38_hhy_992 (antibody, V domains shown) VH: QVQLVQSGAEVKKPGASVKVSCKVSGYTLTEFSIHWVRQAPGQGLEWMGGFDPEDGETIYAQKFQGRVIMTEDTSTDTAYMEMNSLRSEDTAIYYCTTGRFFDWFWGQGTLVTVSS VL: EIILTQSPAILSLSPGERATLSCRASQSVISRFLSWYQVKPGLAPRLLIYGASTRATGIPVRFSGSGSGTDFSLTISSLQPEDCAVYYCQQDSNLPITFGQGTRLEIK .
Output: 6.54

Input: What value of pEC50 has been reported for the following binder? AntiCD38_hyb_6284 (antibody, V domains shown) VH: QVQLLQSGAELVRPGVSVKISCTGSGYSFTNYAVHWVKQSHVKSLEWIGVISPYYGDTTYNQKFTGKATMTVDKSSSTAYMELARLTSEDSAIYFCARRFEGFYYSMDYWGQGTSVTVSS VL: DVVMIQTPLSLPVSLGDQASISCRPSQSLVHSNGNTYLNWYLQRPGQSPKLLIYKVSKRFSGVPDRFSGSGSGTDFTLKISRVEAEDLGVYLCSQSTHVPLTFGSGTQLEIK
Output: 9.15
